Tested on: antibodies in sera from SARS patients (sera 1a, 1b, 2, 6, 37, 62, London, SARS-yellow, SARS-green)
Type: binding, human
# if measured Binding of serum SARS-yellow to linear peptides of protein X1 of SARS-CoV Urbani < 0.5: MET  # else: NOT MET

Solved entries (count: 2):
1. YLYALIYFLQCINAC	MET
2. ESTQITTDTGIENAT	MET

Could you now consider this next sequence?
Problem: Identify whether the sequence LQASLPFGWLVIGVA records Binding of serum SARS-yellow to linear peptides of protein X1 of SARS-CoV Urbani below 0.5.
Solution: NOT MET

----------
Tested on: rabbit serum obtained by immunizing a rabbit with the SARS-CoV strain Frankfurt 1
Assay type: binding
Design: unit not given here
Measurement Label: Binding of a rabbit serum to linear peptides

1. CRIIMRCWLCWKCKS	0.1
2. KMLHSSSLTSLLKTH	0.2
3. VKDYVVVHGYFTEVY	0.1
4. YTQSTALQELLIQQW	0.3
5. LKEDYQIGGYSEDRH	0.1
6. YKGFQFICNLLLLFV	0.3

Problem: Answer with reported Binding of a rabbit serum to linear peptides of ASLPFGWLVIGVAFL
Solution: 1.4

Problem: Answer with reported Binding of a rabbit serum to linear peptides of ANPAMDPIYDEPTTT
Solution: 0.1

Problem: Answer with reported Binding of a rabbit serum to linear peptides of GSITAQPVKIDNASP
Solution: 0.2

Problem: Answer with reported Binding of a rabbit serum to linear peptides of VKIDNASPASTVHAT
Solution: 0.2

Problem: Answer with reported Binding of a rabbit serum to linear peptides of IQQWIQFMMSRRRLL
Solution: 0.4

Problem: Answer with reported Binding of a rabbit serum to linear peptides of QLESTQITTDTGIEN
Solution: 0.1

Problem: Answer with reported Binding of a rabbit serum to linear peptides of IGGYSEDRHSGVKDY
Solution: 0.1

Problem: Answer with reported Binding of a rabbit serum to linear peptides of MRCWLCWKCKSKNPL
Solution: 0.1

Problem: Answer with reported Binding of a rabbit serum to linear peptides of PVKIDNASPASTVHA
Solution: 0.1

Problem: Answer with reported Binding of a rabbit serum to linear peptides of NVQIHTIDGSSGVAN
Solution: 0.1

Problem: Answer with reported Binding of a rabbit serum to linear peptides of KHKKVSTNLCTHSFR
Solution: 0.4

Problem: Answer with reported Binding of a rabbit serum to linear peptides of MMSRRRLLACLCKHK
Solution: 0.4

Problem: Answer with reported Binding of a rabbit serum to linear peptides of TFFIFNKLVKDPPNV
Solution: 0.1

Problem: Answer with reported Binding of a rabbit serum to linear peptides of MLHSSSLTSLLKTHR
Solution: 0.2

Problem: Answer with reported Binding of a rabbit serum to linear peptides of DGISTPKLKEDYQIG
Solution: 0.1

Problem: Answer with reported Binding of a rabbit serum to linear peptides of IHTIDGSSGVANPAM
Solution: 0.1

Problem: Answer with reported Binding of a rabbit serum to linear peptides of YDANYFVCWHTHNYD
Solution: 0.1

Problem: Answer with reported Binding of a rabbit serum to linear peptides of YQIGGYSEDRHSGVK
Solution: 0.1

Problem: Answer with reported Binding of a rabbit serum to linear peptides of QFICNLLLLFVTIYS
Solution: 0.3

----------
Entries annotated with measured Binding of serum London to linear peptides of protein X2
Tested on: antibodies in sera from SARS patients (sera 1a, 1b, 2, 6, 37, 62, London, SARS-yellow, SARS-green)
Format: binding, human
Enter a number only.

Problem: Answer with reported Binding of serum London to linear peptides of protein X2 of LHSSSLTSLLKTHRM
Solution: 0.6

Problem: Answer with reported Binding of serum London to linear peptides of protein X2 of LVVILRIGTQVLKTM
Solution: 0.5

Problem: Answer with reported Binding of serum London to linear peptides of protein X2 of TTVYHITVSQIQLSL
Solution: 0.4

Problem: Answer with reported Binding of serum London to linear peptides of protein X2 of MCKYTQSTALQELLI
Solution: 0.5

Problem: Answer with reported Binding of serum London to linear peptides of protein X2 of ALQELLIQQWIQFMM
Solution: 0.5

----------
System: antibodies in sera from SARS patients (sera 1a, 1b, 2, 6, 37, 62, London, SARS-yellow, SARS-green)
Assay type: binding, human
Entries annotated with measured Binding of serum 2 to linear peptide (PEPSCAN-ELISA)
Enter a number only.

Some solved entries appear below for comparison.
1. NSRNSTPGSSRGNSP	0.3
2. QQQGQTVTKKSAAEA	0.5
3. GKGQQQQGQTVTKKS	0.3
4. SKVSGKGQQQQGQTV	0.3
5. GNSPARMASGGGETA	0.2

Problem: Answer with reported Binding of serum 2 to linear peptide (PEPSCAN-ELISA) of YNVTQAFGRRGPEQT
Solution: 0.2

Problem: Answer with reported Binding of serum 2 to linear peptide (PEPSCAN-ELISA) of KKPRQKRTATKQYNV
Solution: 0.3

----------
Tested on: rabbit serum obtained by immunizing a rabbit with the SARS-CoV strain Frankfurt 1
Type: binding
Parameters: unit not given here
Measurement Label: Rabbit serum linear peptides
Enter a number only.

Some solved entries appear below for comparison.
1) LKEPCPSGTYEGNSP	0.4
2) YFVASFRLFARTRSM	0.6
3) LFLTLIVFTSCELYH	0.7

Problem: Lab note: rabbit serum obtained by immunizing a rabbit with the SARS-CoV strain Frankfurt 1 assay, enter Rabbit serum linear peptides for LFKPLTKKNYSELDD here
Solution: 0.3

Problem: Lab note: rabbit serum obtained by immunizing a rabbit with the SARS-CoV strain Frankfurt 1 assay, enter Rabbit serum linear peptides for RVGTDSGFAAYNRYR here
Solution: 0.0

Problem: Lab note: rabbit serum obtained by immunizing a rabbit with the SARS-CoV strain Frankfurt 1 assay, enter Rabbit serum linear peptides for EELKQLLEQWNLVIG here
Solution: 0.4

Problem: Lab note: rabbit serum obtained by immunizing a rabbit with the SARS-CoV strain Frankfurt 1 assay, enter Rabbit serum linear peptides for NRFLYIIKLVFLWLL here
Solution: 0.4

Problem: Lab note: rabbit serum obtained by immunizing a rabbit with the SARS-CoV strain Frankfurt 1 assay, enter Rabbit serum linear peptides for RSMWSFNPETNILLN here
Solution: 0.4

----------
System: antibodies in sera from SARS patients (sera 1a, 1b, 2, 6, 37, 62, London, SARS-yellow, SARS-green)
Type: binding, human
Entries annotated with measured Binding of serum 1b to looped/cyclic peptide (PEPSCAN-ELISA)
Enter a number only.

Some solved entries appear below for comparison.
1) RWQLALYKGFQFICN	0.4
2) YKGFQFICNLLLLFV	0.0

Problem: Answer with reported Binding of serum 1b to looped/cyclic peptide (PEPSCAN-ELISA) of AGMEAQFLYLYALIY
Solution: 0.4

Problem: Answer with reported Binding of serum 1b to looped/cyclic peptide (PEPSCAN-ELISA) of KSKNPLLYDANYFVC
Solution: 0.5

Problem: Answer with reported Binding of serum 1b to looped/cyclic peptide (PEPSCAN-ELISA) of WLCWKCKSKNPLLYD
Solution: 0.6

Problem: Answer with reported Binding of serum 1b to looped/cyclic peptide (PEPSCAN-ELISA) of QCINACRIIMRCWLC
Solution: 0.4

Problem: Answer with reported Binding of serum 1b to looped/cyclic peptide (PEPSCAN-ELISA) of FLQCINACRIIMRCW
Solution: 0.4

----------
Entries annotated with measured Binding of serum 2 to looped/cyclic peptide (PEPSCAN-ELISA)
System: antibodies in sera from SARS patients (sera 1a, 1b, 2, 6, 37, 62, London, SARS-yellow, SARS-green)
Format: binding, human
Enter a number only.

Some solved entries appear below for comparison.
1. FMRFFTLGSITAQPV	0.4
2. FICNLLLLFVTIYSH	0.4
3. IGVAFLAVFQSATKI	0.4

Problem: Answer with reported Binding of serum 2 to looped/cyclic peptide (PEPSCAN-ELISA) of WQLALYKGFQFICNL
Solution: 0.4

----------
System: antibodies in sera from SARS patients (sera 1a, 1b, 2, 6, 37, 62, London, SARS-yellow, SARS-green)
Format: binding, human
Measurement Label: Binding of serum 1a to linear peptides of protein X4 of SARS-CoV Urbani
Enter a number only.

Some solved entries appear below for comparison.
1) EEVQQELYSPLFLIV	0.7
2) FALTCTSTHFAFACA	0.7
3) ACADGTRHTYQLRAR	0.7
4) LIVFTSCELYHYQEC	0.8

Now, please, on to the next sequence.
Problem: Answer with reported Binding of serum 1a to linear peptides of protein X4 of SARS-CoV Urbani of YSPLFLIVAALVFLI
Solution: 0.7

----------
Test system: control sera (pooled serum of ten healthy LUMC hospital workers; commercial negative donor pooled serum from the Dutch bloodbank)
Format: binding, human
Parameters: unit not given here
Measurement Label: Binding of Control serum Blood-bank to linear peptides of the protein M of SARS-CoV Urbani

Some solved entries appear below for comparison.
1) RCDIKDLPKEITVAT	0.7
2) KLVFLWLLWPVTLAC	0.7
3) ADNGTITVEELKQLL	0.7
4) PVTLACFVLAAVYRI	0.5
5) CFVLAAVYRINWVTG	0.7

Problem: Answer with reported Binding of Control serum Blood-bank to linear peptides of the protein M of SARS-CoV Urbani of LMESELVIGAVIIRG
Solution: 0.8

Problem: Answer with reported Binding of Control serum Blood-bank to linear peptides of the protein M of SARS-CoV Urbani of RTRSMWSFNPETNIL
Solution: 0.9

Problem: Answer with reported Binding of Control serum Blood-bank to linear peptides of the protein M of SARS-CoV Urbani of YFVASFRLFARTRSM
Solution: 0.6

Problem: Answer with reported Binding of Control serum Blood-bank to linear peptides of the protein M of SARS-CoV Urbani of PLGRCDIKDLPKEIT
Solution: 0.6

Problem: Answer with reported Binding of Control serum Blood-bank to linear peptides of the protein M of SARS-CoV Urbani of LQFAYSNRNRFLYII
Solution: 0.6

Problem: Answer with reported Binding of Control serum Blood-bank to linear peptides of the protein M of SARS-CoV Urbani of TVATSRTLSYYKLGA
Solution: 0.8

Problem: Answer with reported Binding of Control serum Blood-bank to linear peptides of the protein M of SARS-CoV Urbani of DIKDLPKEITVATSR
Solution: 0.6

Problem: Answer with reported Binding of Control serum Blood-bank to linear peptides of the protein M of SARS-CoV Urbani of LRMAGHPLGRCDIKD
Solution: 0.7

Problem: Answer with reported Binding of Control serum Blood-bank to linear peptides of the protein M of SARS-CoV Urbani of TRPLMESELVIGAVI
Solution: 0.9

Problem: Answer with reported Binding of Control serum Blood-bank to linear peptides of the protein M of SARS-CoV Urbani of LGASQRVGTDSGFAA
Solution: 0.9

Problem: Answer with reported Binding of Control serum Blood-bank to linear peptides of the protein M of SARS-CoV Urbani of NRNRFLYIIKLVFLW
Solution: 0.7

Problem: Answer with reported Binding of Control serum Blood-bank to linear peptides of the protein M of SARS-CoV Urbani of KEITVATSRTLSYYK
Solution: 0.8

Problem: Answer with reported Binding of Control serum Blood-bank to linear peptides of the protein M of SARS-CoV Urbani of LYIIKLVFLWLLWPV
Solution: 0.7

Problem: Answer with reported Binding of Control serum Blood-bank to linear peptides of the protein M of SARS-CoV Urbani of LLWPVTLACFVLAAV
Solution: 0.7

Problem: Answer with reported Binding of Control serum Blood-bank to linear peptides of the protein M of SARS-CoV Urbani of EQWNLVIGFLFLAWI
Solution: 0.5

Problem: Answer with reported Binding of Control serum Blood-bank to linear peptides of the protein M of SARS-CoV Urbani of MLLQFAYSNRNRFLY
Solution: 0.6

Every entry's value here was drawn from patent US20070128217A1.
